Entry source: patent US20250289888A1

- TARGET_OR_TEST_SYSTEM: human CTLA-4 expressed on cells (human, UniProt P16410 36-223)
- Sequence (P16410 36-223 limits assumed): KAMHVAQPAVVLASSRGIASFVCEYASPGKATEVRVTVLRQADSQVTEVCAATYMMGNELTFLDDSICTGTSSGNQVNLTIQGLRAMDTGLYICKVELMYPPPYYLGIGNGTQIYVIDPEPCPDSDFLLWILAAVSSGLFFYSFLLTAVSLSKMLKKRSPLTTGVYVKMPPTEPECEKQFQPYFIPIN
- PROTOCOL_NOTES: cell-based or functional assay
TEST_READOUT: Promega assay antagonist (EC50. ug/mL) (µg/mL)

* antibody A8 (antibody, human IgG1, V domains shown, full-length human IgG1 (CHO); also called aCTLA-4.1; CTLA4.A8) VH: QVQLVESGGGVVQPGRSLRLSCAASGFTFSRYGMHWVRQAPGKGLEWVAVIWYDGRNKYYADSVKGRFTISRDNSKNTLYLQMNSLRAEDTALYSCARAGELGPFDYWGQGTLVTVSS VL: EIVLTQSPGTLSLSPGERATLSCRASQSVSYLAWYQQKPGQAPRLLIYGASSRATGIPDRFSGSGSGTDFTLTISRLEPEDFAVYYCQQYGSSPWTFGQGTKVEIK | 0.15
* antibody A1 (antibody, human IgG1, V domains shown) VH: QVQLVESGGGVVQPGRSLRLSCAASGFTFSSFGMHWVRQAPGKGLEWVAVIWYDGRNKYYVDSVKGRFTISRDNSNNTLYLQMNSLRAEDTAVYYCARGEFFGEFFDYWGQGTLVTVSS VL: EIVLTQSPGTLSLSPGEGATLSCRASQSFSSNYLAWYQQKPGQAPRLLIYGASSRATGIPDRFSGSGSGTDFTLTISRLEPEDFAVYYCQQYGTSPFTFGPGTKVDIK | 0.13
* antibody A11 (antibody, human IgG1, V domains shown, full-length human IgG1 (CHO); also called aCTLA-4.31; L11H11) VH: QVQLVESGGGVVQPGRSLRLSCAASGFTFSSYGMHWVRQAPGKGLEWVAVIWYDVGNKYYIDSVKGRFTISRDNSKNTLYLQMNSLRAEDTAVYYCARDYYGSGSPRHFDYWGQGTLVTVSS VL: DIQLTQSPSFLSASVGDRVTITCRASQGISSYLAWYQQKPGKAPKLLIYAASTLQSGVPSRFSGSGSGTEFTLTISSLQPEDFATYYCQQLNSYPPTFGQGTKVEIK | 0.42
* antibody A4 (antibody, V domains shown, full-length human IgG1 (CHO); also called aCTLA-4.29; L4H4) VH: QVQLVESGGGVVQPGRSLRISCAASGFTFSSYGIHWVRQAPGKGLQWVAVIWYDGRNKYYADSVKGRFTISRDNSKNTLYLQMNSLRAEDTAVYYCSRSGSFGAFDIWGQGTMVTVSS VL: EIVLTQSPGTLSLSPGDRATLSCRASQSGSSSYLAWYQQKPGQAPRLLIYGASSRATGIPDRFSGSGSGTDFTLTISRLEPEDFAVYYCQQYGTSPFTSGPGTKVDIK | 0.15
* antibody A5 (antibody, V domains shown, full-length human IgG1 (CHO); also called aCTLA-4.28; CTLA4.A5) VH: QVQLVESGGGVVQPGRSLRLSCAASGFTFSSYGMHWVRQAPGKGLEWVAVIWYDGNNKYYADSVKGRFTISRDNSKNTLYLQMYSLRAEDTAVYYCARGGILAAGIFDYWGQGTLVTVSS VL: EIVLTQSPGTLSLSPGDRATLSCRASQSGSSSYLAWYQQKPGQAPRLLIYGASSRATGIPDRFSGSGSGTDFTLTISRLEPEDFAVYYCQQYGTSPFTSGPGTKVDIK | 0.18
